Below, each of the compounds is paired with its reported pEC50 value.
system: HeLa; test: cells; type: functional, cell-based; conditions: Homo sapiens, 48 h
# log scale: pEC50 equals minus log10 of the concentration in mol/L

Examples from the recorded data:
- ITEM_SMILES: "[N-]=[N+]=Nc1ccc(Cn2cc(NC(=O)CCCCCCC(=O)NO)cn2)cc1"
  pEC50: 5.00
- ITEM_SMILES: "[N-]=[N+]=NCc1cc(N=[N+]=[N-])cc(C(=O)Nc2ccc(-c3cc(C(=O)NCCCCCCC(=O)NO)no3)cc2)c1"
  pEC50: 4.97
- ITEM_SMILES: "O=C(CCCCCCC(=O)Nc1cnn(Cc2ccccc2)c1)NO"
  pEC50: 4.97

Returns the measured pEC50 for the input compound. Input: `[N-]=[N+]=NCc1cc(Cn2cc(NC(=O)CCCCCCC(=O)NO)cn2)cc(N=[N+]=[N-])c1`
4.63
